molecules and their reported Monomeric form, relative proportion
- Assay Procedure: Non-reducing SDS-PAGE thermostability, oligomeric forms after boiling
- Assay type: physicochemical
- Condition: boiled 20 minutes

Molecule: AVR1: Recombinant chicken avidin-related protein 1, produced in Sf9 insect cells (protein, UniProt O13153 25-150, looked up) Avidin-related protein 1: ARKCSLTGKWDNDLGSIMTIGAVNDNGEFNGTYITAVADNPGNITRSPLLGIQHKRACQPTFGFTVHWNFSESTSVFVGQCFVDKSGKEVLKTKWLQRLAVDDISDDWKATRVGNNDFTRQRTVEE
Monomeric form, relative proportion / percentage: 40

Molecule: AVR6: Recombinant chicken avidin-related protein 6, produced in Sf9 insect cells (protein, UniProt P56735 25-150, looked up) Avidin-related protein 6: ARKCSLTGEWDNNLGSIMTIGAVNDNGEFNGTYITAVADNPGNIKLSPLLGIQHKRACQPTFGFTVHWNFSESTSVFVGQCFVDRSGKEVLKTKWLQRLAVDDISDDWKATRVGYNNFTRQRTVEE
Monomeric form, relative proportion / percentage: 50

Molecule: AVR7: Recombinant chicken avidin-related protein 7, produced in Sf9 insect cells (protein, UniProt P56736 25-150, looked up) Avidin-related protein 7: ARKCSLTGEWDNNLGSNMTIGAVNDNGEFNGTYITAVADNPGNIKLSPLLGIQHKRACQPTFGFTVHWNFSESTSVFVGQCFIDRSGKEVLKTKWLQRLAVDDISDDWKATRVGYNNFTRQRTVEE
Monomeric form, relative proportion / percentage: 80
